- System: OS-RC-2
- Assay notes: Cytotoxicity against human OS-RC2 cells assessed as reduction in cell viability measured after 72 hrs by CCK8 assay
- Assay type: functional, cell-based
- Experimental setup: OS-RC-2, 72 h
IC50 less than 10 µM is Fulfilled; IC50 greater than or equal to 10 µM is Not fulfilled.

These recorded examples may help you get a feel for the data.
Problem: For the compound `C/C=C(\C)[C@H](O[C@@H]1O[C@H](CO)[C@@H](O)[C@H](O)[C@H]1O)[C@H](C)/C=C/C=C/C/C(C)=C/Cc1nc(OC)c(OC)c(O)c1C` , is IC50 under 10 µM?
Fulfilled

Given the entry `COc1nc(C/C=C(\C)C/C(C)=C/C(C)=C/[C@@H](C)[C@@H](O)/C(C)=C/[C@](C)(O)[C@@H](C)O)c(C)c(O)c1OC` , would its reported IC50 be below 10 µM?
Fulfilled

Determine whether this compound shows IC50 lower than 10 µM (ties excluded): `C/C=C(\C)C(=O)[C@H](C)/C=C(C)/C=C/C/C(C)=C/Cc1nc(OC)c(OC)c(O)c1C`
Not fulfilled

Is 10 µM strictly greater than the compound's reported IC50? compound: `COc1nc(C/C=C(\C)C[C@H](O)[C@H](OC)/C(C)=C/[C@@H](C)[C@@H](O[C@@H]2O[C@H](CO)[C@@H](O)[C@H](O)[C@H]2O)/C(C)=C/CO)c(C)c(O)c1OC`
Not fulfilled

is_below(IC50, 10 µM) for `COc1nc(C/C=C(\C)C/C=C/C(C)=C/[C@@H](C)[C@@H](O[C@@H]2O[C@H](CO)[C@@H](O)[C@H](O)[C@H]2O)[C@@]2(C)O[C@@H]2C)c(C)c(O)c1OC` ?
Not fulfilled

***
Is 10 µM strictly greater than the compound's reported IC50? compound: `C/C=C(\C)[C@H](O[C@@H]1O[C@H](CO)[C@@H](O)[C@H](O)[C@H]1O)[C@H](C)/C=C(C)/C=C/C/C(C)=C/Cc1nc(OC)c(OC)c(O[C@@H]2O[C@H](CO)[C@@H](O)[C@H](O)[C@H]2O)c1C`
Not fulfilled

API: query returns whether the compound falls strictly under 10 µM in IC50. Query: `C/C=C/[C@H](O)[C@H](C)/C=C(C)/C=C/C/C(C)=C/Cc1nc(OC)c(OC)c(O)c1C`
Not fulfilled

# check: IC50 < 10 µM for `COc1nc(C/C=C(\C)C/C=C/C(C)=C/[C@@H](C)[C@@H](O[C@@H]2O[C@H](CO[C@H]3O[C@H](CO)[C@@H](O)[C@H](O)[C@H]3O)[C@@H](O)[C@H](O)[C@H]2O)/C(C)=C/CO)c(C)c(O)c1OC`
Not fulfilled

Lab note: IC50 threshold 10 µM. Does this compound come in strictly under it? `COc1nc(C/C=C(\C)C/C=C/C=C/[C@@H](C)[C@@H](O[C@@H]2O[C@H](CO)[C@@H](O)[C@H](O)[C@H]2O)/C(C)=C/CO)c(C)c(O)c1OC`
Not fulfilled

Criterion: IC50 strictly below 10 µM. Is it met by `C/C=C(\C)[C@H](O[C@@H]1O[C@H](CO)[C@@H](O)[C@H](O)[C@H]1O)[C@H](C)/C=C(\C)[C@@H](OC)[C@@H](O)C/C(C)=C/Cc1nc(OC)c(OC)c(O)c1C` ?
Not fulfilled

# check: IC50 < 10 µM for `COc1nc(C/C=C(\C)C/C=C/C(C)=C/[C@@H](C)[C@@H](O[C@@H]2O[C@H](CO)[C@@H](O)[C@H](O)[C@H]2O)/C(C)=C/CO)c(C)c(O)c1OC`
Not fulfilled
